In this section, each of the compounds is paired with its reported Tmax.
Assay: Tmax in Sprague-Dawley rat at 15 mg/kg, po administered as single dose measured upto 24 hrs by LC-MS/MS analysis
Type: ADME, organism-based
Conditions: in vivo
Provide the reading as a plain figure in h.

`CN1CCCN(c2ccc(C#N)c(CN3CCN(C(c4ccc(F)cc4)c4ccc(F)cc4)CC3)c2)CC1` has a reported Tmax of 2.69

---
Form: compound = CN1CCCN(c2ccc(C#N)c(CN3CCN(C(c4ccccc4)c4ccc(Cl)cc4)CC3)c2)CC1 (configuration not stated) ; Tmax = 5.33

---

Test: AUC (0 to infinity) in Sprague-Dawley rat at 15 mg/kg, po administered as single dose measured upto 24 hrs by LC-MS/MS analysis
Type: ADME, organism-based
Parameters: route oral, dose 15 mg/kg, time <=24
Conditions: in vivo
experimental-readout: AUC(0-inf) (ng·h/mL)
Could you give me the number in ng·h/mL? Just the number is fine.

So, CN1CCCN(c2ccc(C#N)c(CN3CCN(C(c4ccccc4)c4ccc(Cl)cc4)CC3)c2)CC1 (configuration not stated) ? Its AUC(0-inf) was 848

Shift focus to the following entry.
The compound listed as `CN1CCCN(c2ccc(C#N)c(CN3CCN(C(c4ccc(F)cc4)c4ccc(F)cc4)CC3)c2)CC1` has a reported AUC(0-inf) of 639

---

Assay: Cmax in Sprague-Dawley rat at 15 mg/kg, po administered as single dose measured upto 24 hrs by LC-MS/MS analysis
Type: ADME, organism-based
Design: route oral, dose 15 mg/kg, time <=24
Details: in vivo
// reported Cmax for each item listed
# value in ng/mL; strip the unit string

The value of Cmax measured for the compound `CN1CCCN(c2ccc(C#N)c(CN3CCN(C(c4ccc(F)cc4)c4ccc(F)cc4)CC3)c2)CC1` turned out to be 78

Now for the compound whose Cmax we want.
Cmax measured on CN1CCCN(c2ccc(C#N)c(CN3CCN(C(c4ccccc4)c4ccc(Cl)cc4)CC3)c2)CC1 (configuration not stated) = 97.9

---

Assay: Selectivity index, ratio of CC50 for cytotoxicity against human Huh7.5.1 cells to EC50 for antiviral activity against HCV infected in human Huh7.5.1 cells
Assay type: toxicity, cell-based
Conditions: read-out: Ratio CC50/EC50
experimental-readout: selectivity ratio

Here are 5 compounds together with their reported answers.
Lab note: `CN(C)CCN(C)c1ccc(C#N)c(CN2CCN(c3ccc(Cl)cc3)CC2)c1` gave selectivity ratio of > 81

Measured selectivity ratio of CN(C)CCN(C)CCN(C)c1ccc(C#N)c(CN2CCN(C(c3ccccc3)c3ccc(Cl)cc3)CC2)c1 (stereo not drawn) : 87

Entry `CN(C)CCN(C)c1ccc(C#N)c(CN2CCN(c3ccc(C(F)(F)F)cc3)CC2)c1` — recorded selectivity ratio = 1010

Entry under test: `CN(C)CCN(C)c1ccc(C#N)c(CN2CCN(Cc3ccc(Cl)cc3)CC2)c1` . Its selectivity ratio was 17

Please fill in: selectivity ratio reported for CNCCN(C)CCN(C)c1ccc(C#N)c(CN2CCN(C(c3ccccc3)c3ccc(Cl)cc3)CC2)c1 (stereo not drawn) = 49

Next:
Note to self: selectivity ratio recorded for CC(c1ccccc1)N1CCN(Cc2cc(N(C)CCN(C)C)ccc2C#N)CC1 (stereo not drawn) was 43

`CN1CCCN(c2ccc(C(F)(F)F)c(CN3CCN(C(c4ccc(F)cc4)c4ccc(F)cc4)CC3)c2)CC1` yielded selectivity ratio of 206

According to the records, this compound `CC(C)OC(=O)[C@H](C)N[P@](=O)(OC[C@H]1O[C@@H](n2ccc(=O)[nH]c2=O)[C@](C)(F)[C@@H]1O)Oc1ccccc1` displays selectivity ratio of > 2440
